system: barnyardgrass (Echinochloa oryzicola Vasing.); experiment: Test Example 1: herbicidal effects, paddy-field pot test; type: in vivo; conditions: chemical dosage 10 g/a; wettable powder applied 3 days after transplanting; judged after 25 days
READOUT TYPE: Herbicidal effects Barnyard grass

>  <MOLECULE>
Oc1cc(Cl)nnc1Oc1cccc2c1OCO2

>  <DATA VALUE>
2 (Growth inhibition rate; 31 to 50%)

$$$$
>  <MOLECULE>
Oc1cc(Cl)nnc1Oc1cc(Cl)ccc1C1CC1

>  <DATA VALUE>
2 (Growth inhibition rate; 31 to 50%)

$$$$
>  <MOLECULE>
Cc1cccc(C2CC2)c1Oc1nnc(Cl)cc1O

>  <DATA VALUE>
3 (Growth inhibition rate; 51 to 70%)

$$$$
>  <MOLECULE>
Cc1ccccc1Oc1nnc(Cl)cc1OC(=O)c1ccccc1

>  <DATA VALUE>
3 (Growth inhibition rate; 51 to 70%)

$$$$
>  <MOLECULE>
CC1CCc2cccc(Oc3nnc(Cl)cc3O)c21 (stereo not shown)

>  <DATA VALUE>
5 (Growth inhibition rate; 91 to 100%)

$$$$
>  <MOLECULE>
Oc1cc(Cl)nnc1Oc1c(F)cccc1Cl

>  <DATA VALUE>
4 (Growth inhibition rate; 71 to 90%)

$$$$
>  <MOLECULE>
Oc1cc(Cl)nnc1Oc1cc(F)ccc1C1CC1

>  <DATA VALUE>
4 (Growth inhibition rate; 71 to 90%)

$$$$
>  <MOLECULE>
O=C(Oc1cc(Cl)nnc1Oc1ccccc1C1CC1)c1ccccc1

>  <DATA VALUE>
2 (Growth inhibition rate; 31 to 50%)

$$$$
>  <MOLECULE>
CCc1cc(I)cc(I)c1Oc1nnc(Cl)cc1O

>  <DATA VALUE>
2 (Growth inhibition rate; 31 to 50%)

$$$$
>  <MOLECULE>
CCc1ccc(C2CC2)c(Oc2nnc(Cl)cc2O)c1

>  <DATA VALUE>
3 (Growth inhibition rate; 51 to 70%)

$$$$
